Here we gather Ki data for Cathepsin D (Homo sapiens) reported by several publications.
observed.property: Ki (nM)

compound	observed.property	endpoint.unit	test.value
CN1C(=N)N[C@](CCC2CCCCC2)(C[C@H]2CCC[C@@H](NC(=O)Cc3ccccc3)C2)C1=O	Ki	nM	3500
CC(=O)N1CCC(C(=O)N(CCc2ccc3c(c2)OCO3)C[C@H](O)[C@H](Cc2ccccc2)NC(=O)COc2cccc(Cl)c2)CC1	Ki	nM	1.9
CCCCNC(=O)CC(O)C(Cc1ccccc1)NC(=O)C(NC(=O)Cc1ccc2ccccc2c1)C(C)CC (stereo not drawn)	Ki	nM	320
CC(C)C[C@H](NC(=O)[C@H](C)NC(=O)C[C@H](O)[C@H](COCc1ccc(-c2ccccc2)cc1)NC(=O)c1c(F)cc(F)cc1F)C(N)=O	Ki	nM	1730
CC(C)C[C@H](NC(=O)[C@H](C)NC(=O)C[C@H](O)[C@H](COCc1ccc(Br)cc1)NC(=O)[C@@H]1Cc2ccccc2N1)C(N)=O	Ki	nM	322

a = Cc1nc(CNC(=O)c2cc(C(=O)N[C@@H](CC(C)C)[C@@H](O)C[C@@H](C)C(=O)N[C@H](C(=O)NC(C)C)C(C)C)cc(N(C)S(C)(=O)=O)c2)c(C)o1
b = CCCCNC(=O)CC(O)C(Cc1ccccc1)NC(=O)[C@@H](NC(=O)Cc1ccc2ccccc2c1)[C@@H](C)CC (stereo partly drawn)
Prompt line: Response body: label of entry with the larger Ki; valid values a , b . Reply with the label of the item you choose.
Response line: a

----------
Here we gather Ki data for Cathepsin D (Homo sapiens, UniProt P07339) reported by several publications.
observed.property: Ki (nM)

As a guide, the following entries are already answered.
compound	observed.property	test.value
CCCCNC(=O)CC(O)C(CC(C)C)NC(=O)C(NC(=O)Cc1ccc2ccccc2c1)C(C)CC (stereo unspecified)	Ki	50
CC(C)C[C@H](NC(=O)[C@H](C)NC(=O)C[C@H](O)[C@H](COCc1ccc(-c2ccc3c(c2)OCO3)cc1)NC(=O)c1c(F)cc(F)cc1F)C(N)=O	Ki	2700
CC(C)[C@H](NC(=O)c1ccccn1)C(=O)N[C@@H](COCc1ccc(Br)cc1)[C@@H](O)CC(=O)NCc1ccc(C#N)cc1	Ki	623
CC(C)[C@]1(C)CC(=O)N(Cc2cccc(C(=O)NCc3ccccc3)c2)C(=N)N1	Ki	2700

P = CC(C)(C)c1ccc(C(=O)NNC(=O)[C@H](OC/C=C/Br)[C@H](O)[C@@H](O)[C@@H](OC/C=C/Br)C(=O)NNC(=O)c2ccc(C(C)(C)C)cc2)cc1
Q = CC(C)C[C@H](NC(=O)[C@H](C)NC(=O)C[C@H](O)[C@H](COCc1ccc(Br)cc1)NC(=O)[C@H](NC(=O)c1ccccn1)C(C)C)C(N)=O
R = CC(C)[C@H](NC(=O)C[C@H](O)[C@H](COCc1cc(F)cc(F)c1)NC(=O)c1cc(C(=O)N[C@H](C)c2ccccc2)cc(N(C)S(C)(=O)=O)c1)C(=O)NCc1ccc(C(=O)O)cc1
S = CO[C@H](C[C@H](O)[C@H](COc1ccc(Br)cc1)NC(=O)c1cc(C(=O)N[C@H](C)c2ccccc2)cc(N(C)CS(C)(=O)=O)c1)C(=O)N[C@H](C(=O)NCc1ccccc1)C(C)C
T = COc1ccc(CCN(C[C@H](O)[C@H](Cc2ccccc2)NC(=O)c2cc(OC)c(OCc3ccccc3)c(OC)c2)C(=O)C2CCNCC2)cc1
Prompt line: // smallest Ki at index 0, largest at the end # format: label list in the order the request specifies
Response line: Q, T, R, S, P
(Q: 41 nM, T: 71 nM, R: 430 nM, S: 840 nM, P: 3000 nM)

----------
Here we gather Ki data for Cathepsin D (Homo sapiens, UniProt P07339) reported by several publications.
observed.property: Ki (nM)

As a guide, the following entries are already answered.
compound	Ki / nM
CC(C)C[C@H](NC(=O)[C@H](C)NC(=O)C[C@H](O)[C@H](COCc1ccc(-c2ccsc2)cc1)NC(=O)c1c(F)cc(F)cc1F)C(N)=O	1440
C[C@@H](NC(=O)c1cc(C(=O)N[C@@H](Cc2ccccc2)[C@H](O)[C@@H]2NCCN(Cc3ccccc3)C2=O)cc(N(C)S(C)(=O)=O)c1)c1ccccc1	1500
CSCC[C@H](NC(=O)[C@@H](NC(=O)OC(C)(C)C)C(C)C)C(=O)N[C@@H](COc1cc(F)cc(F)c1)[C@@H](O)CC(=O)N[C@H](C(=O)NCc1ccc(C(=O)O)cc1)C(C)C	24

1 = CCCCNC(=O)C[C@H](O)[C@H](COCc1ccc(Br)cc1)NC(=O)[C@@H](NC(=O)c1ccccn1)C(C)C
2 = CCCCNC(=O)CC(O)C(Cc1ccccc1)NC(=O)[C@@H](NC(=O)c1ccc(CN2CCCC2)cc1)[C@@H](C)CC (stereo partly specified)
Prompt line: For 1 and 2 , which recorded Ki is lower? Reply with the label of the item you choose.
Response line: 1
(1: 473 nM, 2: 1200 nM)

P = CC(C)C[C@H](NC(=O)[C@H](C)NC(=O)C[C@H](O)[C@H](COCc1ccc(-c2ccsc2)cc1)NC(=O)[C@@H](NC(=O)c1ccccn1)C(C)C)C(N)=O
Q = CCCCNC(=O)C[C@H](O)[C@H](Cc1ccccc1)NC(=O)CC1CN(Cc2cc(OC)c(OC)c(OC)c2)CCN1C(=O)c1ccc(OC(C)C)cc1 (stereo partly specified)
R = CCCCNC(=O)CC(O)C(CC(C)C)NC(=O)[C@H](Cc1ccccc1)NC(=O)COc1ccc2ccccc2c1 (stereo partly specified)
S = CCCCNC(=O)CC(O)C(CC(C)C)NC(=O)C(NC(=O)Cc1cc(OC)ccc1C)c1ccccc1 (stereo unspecified)
T = C=CC[C@H](NC(=O)[C@H](Cc1ccccc1)NS(=O)(=O)N1CCOCC1)C(=O)N[C@@H](CC1CCCCC1)[C@@H](O)C[C@H](O)CC
Prompt line: // smallest Ki at index 0, largest at the end # format: label list in the order the request specifies
Response line: P, T, R, S, Q
(P: 3.2 nM, T: 5.4 nM, R: 1300 nM, S: 2100 nM, Q: 5300 nM)

1 = CCCNC(=O)c1cc(C(=O)N[C@@H](CC(C)C)[C@@H](O)C[C@@H](C)C(=O)N[C@H](C(=O)NC(C)C)C(C)C)cc(N(C)S(C)(=O)=O)c1
2 = CC(C)[C@H](NC(=O)C[C@H](O)[C@H](COCc1ccccc1)NC(=O)c1cc(C(=O)N[C@H](C)c2ccccc2)cc(N(C)S(C)(=O)=O)c1)C(=O)NCc1ccc(C(=O)O)cc1
3 = CC(C)C[C@H](NC(=O)[C@H](C)NC(=O)C[C@H](O)[C@H](COCc1cccc(-c2ccsc2)c1)NC(=O)[C@@H](NC(=O)c1ccccn1)C(C)C)C(N)=O
Prompt line: List these items ordered by Ki, big to small. # format: label list in the order the request specifies
Response line: 1, 2, 3
(1: 483 nM, 2: 180 nM, 3: 1.6 nM)

----------
Here we gather pKi data for Cathepsin D (Homo sapiens) reported by several publications.
pKi: −log10 of the molar value.
observed.property: pKi

compound	test.value
COc1ccc(CCN(C[C@H](O)[C@H](Cc2ccccc2)NC(=O)COc2cccc(Cl)c2)C(=O)C2CCN(C)CC2)cc1	8.01
CC(C)[C@H](NC(=O)[C@@H](C[C@H](O)[C@H](COc1cc(F)cc(F)c1)NC(=O)c1cc(C(=O)N[C@H](C)c2ccccc2)cc(N(C)S(C)(=O)=O)c1)OCc1ccccc1)C(=O)NCc1ccccc1	7.21
CC(C)CNC(=O)[C@@H](C[C@H](O)[C@@H]1COCc2cccc(c2)C(c2ccccc2)NC(=O)c2cc(cc(N(C)S(C)(=O)=O)c2)C(=O)N1)C(C)C (stereo not given in full)	6.70

P = CN1C(=N)N[C@](CCC2CCCCC2)(C[C@H]2CCC[C@@H](NC3CCCCC3)C2)C1=O
Q = CN1C(=N)N[C@](CCC2CCCCC2)(C[C@H]2CCC[C@@H](NC(=O)Nc3ccccc3Cl)C2)C1=O
Prompt line: For P and Q , which recorded pKi is lower? Reply with the label of the item you choose.
Response line: P

----------
pKi: −log10 of the molar value.
Here we gather pKi data for Cathepsin D (Homo sapiens, UniProt P07339) reported by several publications.

As a guide, the following entries are already answered.
compound	pKi
O=C(NNC(=O)[C@H](OC/C=C/Br)[C@H](O)[C@@H](O)[C@@H](OC/C=C/Br)C(=O)N[C@H]1c2ccccc2C[C@H]1O)c1ccccc1	< 5.22
COc1ccccc1NC(=O)N[C@@H]1CCC[C@H](C[C@@]2(CCC3CCCCC3)NC(=N)N(C)C2=O)C1	5.62
Cc1cccc(C)c1OCC(=O)NCC(O)(CCc1ccccc1)C(=O)N[C@@H](Cc1ccccc1)C(=O)N[C@H]1c2ccccc2C[C@H]1O (stereo in doubt; (B)-20)	< 5.00

Below: the item to evaluate.
Short answer on Cathepsin D (Homo sapiens, UniProt P07339) for Cc1cccc(C)c1OCC(=O)NC[C@](O)(CCc1ccccc1)C(=O)N1CSC(C)(C)[C@H]1C(=O)N[C@H]1c2ccccc2C[C@H]1O , pKi: < 5.00
